# ASSAY NAME: Cmax in mouse at 150 mg/kg, po
# Type: ADME, organism-based
# Design: dose 150 mg/kg, route oral
# CONDITION INFO: in vivo
OBSERVABLE: Cmax (µM)
Reply numerically in µM, unit not repeated.

// worked examples, Cmax included
{"COMPOUND": "COP(C)(=O)c1ccc(C(=O)Nc2cc(-c3cccs3)ccc2N)cc1 (stereo not given)", "OBSERVABLE": "Cmax", "REPORTED VALUE": 39}
{"COMPOUND": "COP(=O)(c1ccccc1)c1ccc(C(=O)Nc2cc(-c3cccs3)ccc2N)cc1 (stereo not given)", "OBSERVABLE": "Cmax", "REPORTED VALUE": 11}
{"COMPOUND": "CCOP(C)(=O)c1ccc(C(=O)Nc2cc(-c3cccs3)ccc2N)cc1 (stereo not given)", "OBSERVABLE": "Cmax", "REPORTED VALUE": 43}

Lab note: CCOP(C)(=O)Cc1ccc(C(=O)Nc2cc(-c3cccs3)ccc2N)cc1 (stereo not given) gave Cmax of 31

Lab note: CCOP(=O)(c1ccccc1)c1ccc(C(=O)Nc2cc(-c3cccs3)ccc2N)cc1 (stereo not given) gave Cmax of 0.56

Lab note: CC(C)P(=O)(Cc1ccc(C(=O)Nc2cc(-c3cccs3)ccc2N)cc1)C(C)C gave Cmax of 1.9

Lab note: CCOP(=O)(CC)Cc1ccc(C(=O)Nc2cc(-c3cccs3)ccc2N)cc1 (stereo not given) gave Cmax of 17

Lab note: CCP(=O)(CC)Cc1ccc(C(=O)Nc2cc(-c3cccs3)ccc2N)cc1 gave Cmax of 14

Lab note: CP(=O)(Cc1ccc(C(=O)Nc2cc(-c3cccs3)ccc2N)cc1)OCc1cccnc1 (stereo not given) gave Cmax of 8.8

Lab note: COP(C)(=O)Cc1ccc(C(=O)Nc2cc(-c3cccs3)ccc2N)cc1 (stereo not given) gave Cmax of 88

* * *

# ASSAY NAME: Plasma concentration in ip dosed nude CD-1 mouse after 3 hrs
OBSERVABLE: concentration at 3 h
Please answer using a numeric value trailed by its unit.

Lab note: CCOP(=O)(Cc1ccc(C(=O)Nc2cc(-c3cccs3)ccc2N)cc1)OCC gave concentration at 3 h of 1540 nM

* * *

# SYSTEM NAME: Histone deacetylase 5 (Homo sapiens)
# Sequence (Q9UQL6 whole entry): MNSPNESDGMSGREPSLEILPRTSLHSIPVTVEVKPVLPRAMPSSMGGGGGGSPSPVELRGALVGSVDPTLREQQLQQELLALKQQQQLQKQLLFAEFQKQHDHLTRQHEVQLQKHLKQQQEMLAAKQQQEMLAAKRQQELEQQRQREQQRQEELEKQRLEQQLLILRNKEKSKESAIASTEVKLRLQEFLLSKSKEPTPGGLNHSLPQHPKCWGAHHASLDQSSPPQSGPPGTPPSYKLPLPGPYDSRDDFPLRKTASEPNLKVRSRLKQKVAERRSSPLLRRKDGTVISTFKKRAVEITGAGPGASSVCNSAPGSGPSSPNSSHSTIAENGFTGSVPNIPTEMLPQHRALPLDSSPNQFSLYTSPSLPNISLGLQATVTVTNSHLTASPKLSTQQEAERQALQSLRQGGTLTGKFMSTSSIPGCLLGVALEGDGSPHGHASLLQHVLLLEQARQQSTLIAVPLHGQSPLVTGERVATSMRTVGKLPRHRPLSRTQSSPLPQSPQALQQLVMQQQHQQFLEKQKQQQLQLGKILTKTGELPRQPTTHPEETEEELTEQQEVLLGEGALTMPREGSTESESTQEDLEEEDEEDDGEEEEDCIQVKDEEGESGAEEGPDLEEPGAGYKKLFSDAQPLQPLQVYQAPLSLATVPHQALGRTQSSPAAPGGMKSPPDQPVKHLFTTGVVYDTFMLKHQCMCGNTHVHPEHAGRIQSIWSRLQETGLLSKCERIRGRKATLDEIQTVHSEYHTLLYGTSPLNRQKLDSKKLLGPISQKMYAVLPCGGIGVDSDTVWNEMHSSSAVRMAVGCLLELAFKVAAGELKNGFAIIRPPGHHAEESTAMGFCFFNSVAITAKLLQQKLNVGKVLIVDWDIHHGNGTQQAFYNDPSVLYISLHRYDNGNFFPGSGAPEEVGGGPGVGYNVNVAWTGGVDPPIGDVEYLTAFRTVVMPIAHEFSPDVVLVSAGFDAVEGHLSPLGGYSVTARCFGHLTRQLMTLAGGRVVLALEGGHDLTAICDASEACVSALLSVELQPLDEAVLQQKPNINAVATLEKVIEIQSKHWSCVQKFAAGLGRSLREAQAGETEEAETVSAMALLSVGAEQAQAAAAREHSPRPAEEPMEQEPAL
OBSERVABLE: IC50

IC50 of CCOP(=O)(CNCc1ccc(C(=O)Nc2cc(-c3cccs3)ccc2N)cc1)OCC , assay on Histone deacetylase 5 (Homo sapiens), is > 50 µM

* * *

# ASSAY NAME: AUC (0 to infinity) in po dosed Sprague-Dawley rat
# Format: ADME, organism-based
# Set-up: time infinity, route oral
# CONDITION INFO: plasma
OBSERVABLE: AUC(0-inf) (µM·h)
Reply numerically in µM·h, unit not repeated.

Lab note: CCOP(=O)(Cc1ccc(C(=O)Nc2cc(-c3cccs3)ccc2N)cc1)OCC gave AUC(0-inf) of 4.4

* * *

# ASSAY NAME: Volume of distribution at steady state in Sprague-Dawley rat
# Assay type: ADME, organism-based
# CONDITION INFO: in vivo, read-out: Vdss
OBSERVABLE: Vd (L/kg)
Reply numerically in L/kg, unit not repeated.

Lab note: CCOP(=O)(Cc1ccc(C(=O)Nc2cc(-c3cccs3)ccc2N)cc1)OCC gave Vd of 7.27

* * *

System: Histone deacetylase 1 (Homo sapiens) | Read-out: IC50
Sequence (Q13547 whole entry): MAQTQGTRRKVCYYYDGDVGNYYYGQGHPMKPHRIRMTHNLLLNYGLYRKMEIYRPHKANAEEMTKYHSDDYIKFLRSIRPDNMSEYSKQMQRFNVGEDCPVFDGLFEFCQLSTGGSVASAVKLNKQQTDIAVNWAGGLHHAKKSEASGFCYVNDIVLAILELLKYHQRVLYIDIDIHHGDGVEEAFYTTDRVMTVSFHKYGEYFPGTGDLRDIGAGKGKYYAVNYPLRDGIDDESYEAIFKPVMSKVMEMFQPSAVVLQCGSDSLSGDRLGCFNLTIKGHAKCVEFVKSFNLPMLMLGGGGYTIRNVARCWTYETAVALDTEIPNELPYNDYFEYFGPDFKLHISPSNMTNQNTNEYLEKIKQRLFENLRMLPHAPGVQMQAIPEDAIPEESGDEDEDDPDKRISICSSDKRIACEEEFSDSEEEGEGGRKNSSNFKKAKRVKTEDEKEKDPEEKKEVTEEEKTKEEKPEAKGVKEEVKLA
Reply numerically in nM, unit not repeated.

// worked examples, IC50 included
{"MOLECULE": "CCOP(=O)(Cc1ccc(C(=O)Nc2cc(-c3cccs3)ccc2N)cc1)OCC", "SYSTEM NAME": "Histone deacetylase 1 (Homo sapiens)", "REPORTED VALUE": 13}
{"MOLECULE": "COP(=O)(Cc1ccc(C(=O)Nc2cc(-c3cccs3)ccc2N)cc1)c1ccccc1 (configuration not stated)", "SYSTEM NAME": "Histone deacetylase 1 (Homo sapiens)", "REPORTED VALUE": 20}
{"MOLECULE": "COP(C)(=O)c1ccc(C(=O)Nc2cc(-c3cccs3)ccc2N)cc1 (configuration not stated)", "SYSTEM NAME": "Histone deacetylase 1 (Homo sapiens)", "REPORTED VALUE": 52}

Lab note: CCOP(=O)(O)Cc1ccc(C(=O)Nc2cc(-c3cccs3)ccc2N)cc1 gave IC50 of 38

Lab note: CCP(=O)(Cc1ccc(C(=O)Nc2cc(-c3cccs3)ccc2N)cc1)OC (configuration not stated) gave IC50 of 7

Lab note: COP(=O)(Cc1cccc(C(=O)Nc2cc(-c3cccs3)ccc2N)c1)c1ccccc1 (configuration not stated) gave IC50 of 140

Lab note: CCOP(=O)(CNCc1ccc(C(=O)Nc2cc(-c3cccs3)ccc2N)cc1)OCC gave IC50 of 7.7
